Target: Endothelin A receptor (Oryctolagus cuniculus)
Experiment: Displacement of [125I]-ET-1 from Endothelin A receptor of rabbit renal artery vascular smooth muscle cells
Where a SMILES comes first, the peptide text is derived from it. [ ]: non-standard residue; d: D form.
propertyLabel: pIC50
Reminder that pIC50 means the negative base-10 logarithm of the concentration expressed in mol/L.

For reference, reported pIC50 for CC[C@H](C)[C@H](NC(=O)[C@H](CC(=O)O)NC(=O)[C@@H](Cc1ccccc1)NC(C)=O)C(=O)N[C@H](C(=O)N[C@@H](Cc1c[nH]c2ccccc12)C(=O)O)[C@@H](C)CC (Ac-[dF]DIIW-OH) stands at 5.04

====

# pIC50 per record follows
Target: Endothelin receptor type B (Rattus norvegicus, UniProt P21451)
Sequence (P21451 whole entry): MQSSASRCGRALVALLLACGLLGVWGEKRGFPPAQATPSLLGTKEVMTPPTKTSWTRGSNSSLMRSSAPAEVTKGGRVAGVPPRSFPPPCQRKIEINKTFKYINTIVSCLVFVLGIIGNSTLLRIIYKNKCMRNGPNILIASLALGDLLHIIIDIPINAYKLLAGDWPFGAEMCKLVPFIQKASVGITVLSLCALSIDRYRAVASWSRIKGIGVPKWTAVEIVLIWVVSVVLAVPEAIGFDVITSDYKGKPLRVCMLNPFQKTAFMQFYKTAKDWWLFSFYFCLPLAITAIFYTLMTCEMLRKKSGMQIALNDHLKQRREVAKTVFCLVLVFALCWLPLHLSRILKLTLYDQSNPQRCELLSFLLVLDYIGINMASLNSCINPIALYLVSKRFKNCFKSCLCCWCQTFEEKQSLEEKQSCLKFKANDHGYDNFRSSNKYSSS
Test: Displacement of [125I]ET1 from Endothelin B receptor of rat cerebellum
Assay type: tissue-based
Where a SMILES comes first, the peptide text is derived from it. [ ]: non-standard residue; d: D form.
Reminder that pIC50 means the negative base-10 logarithm of the concentration expressed in mol/L.

Observe how each entry below is paired with its result.
CC[C@H](C)[C@H](NC(=O)[C@H](CC(=O)O)NC(=O)[C@@H](Cc1ccccc1)NC(=O)[C@@H](Cc1ccccc1)NC(C)=O)C(=O)N[C@H](C(=O)N[C@@H](Cc1c[nH]c2ccccc12)C(=O)O)[C@@H](C)CC (Ac-[dF][dF]DIIW-OH)
7.52
CC[C@H](C)[C@H](NC(=O)[C@H](CC(=O)O)NC(=O)[C@H](Cc1ccccc1)NC(=O)[C@@H](Cc1ccccc1)NC(C)=O)C(=O)N[C@H](C(=O)N[C@@H](Cc1c[nH]c2ccccc12)C(=O)O)[C@@H](C)CC (Ac-[dF]FDIIW-OH)
7.30

Next:
For reference, reported pIC50 for CC[C@H](C)[C@H](NC(=O)[C@H](CC(=O)O)NC(=O)[C@H](CC(C)C)NC(=O)[C@@H](Cc1ccccc1)NC(C)=O)C(=O)N[C@H](C(=O)N[C@@H](Cc1c[nH]c2ccccc12)C(=O)O)[C@@H](C)CC (Ac-[dF]LDIIW-OH) stands at 6.85
